# method: Toxicity in ip dosed CD1 mouse assessed as mortality administered as qd after 48 hrs
# Format: organism-based
# conditionInfo: in vivo
# maps each entry to its LD50 at 48 h
Kindly provide the numeric value in mg/kg only, without the unit symbol.

Recorded results for 2 compounds are shown here.
compound: CCN(C)C(=O)Oc1cccc([C@H](C)N(C)C)c1 [RIVASTIGMINE]
reportedEndpoint: LD50 at 48 h
experimentalValue: 6.2
//
compound: COc1cc2c(cc1OC)C(=O)C(Cc1cc[n+](Cc3cccc(Cl)c3)cc1C(N)=O)C2.[Br-] (racemic)
reportedEndpoint: LD50 at 48 h
experimentalValue: 70

From here, focus on the item given below.
Which LD50 at 48 h value is on record for COc1cc2c(cc1OC)C(=O)C(CC1CCN(Cc3ccccc3)CC1)C2 (centres undefined) [DONEPEZIL] ? 22.5
